Test system: P. berghei-ANKA-GFP-LucCON liver stage parasites in HepG2-A16-CD81EGFP cells
Experiment: P. berghei liver stage Pb-Luc assay, Method 1 (UCSD, 1536-well); note: reference of the scale not given here
Format: cell-based, Plasmodium berghei
Conditions: Plasmodium berghei, 48 h, nominal 3 uM (10 mM stock); 4.5 uM for 15 mM, 3.6 uM for 12 mM, 6 uM for 20 mM stock; average of 2 wells, 1536-well plate; repeat 2; read-out: Pb-Luc signal, 3 uM, repeat 2
quantity.kind: activity at 3 µM (%)
Reply with just the number (in %).

INPUT: # query: activity at 3 µM of entry COc1ccc(CN[C@@H]2C=C[C@@H](c3c(C)nn(-c4ccc(OC)cc4)c3C)C2)cc1
OUTPUT: 76.7

INPUT: # query: activity at 3 µM of entry CCC(CC)c1cc([C@H]2CN3CC[C@H]2C[C@@H]3CN[S+](=O)([O-])c2ccccc2C#N)nc(-c2ccncc2)n1
OUTPUT: 52

INPUT: # query: activity at 3 µM of entry Cc1cnc(CC2CCN([S+](=O)([O-])c3ccccc3)CC2)n1Cc1ccccc1
OUTPUT: 76.7

INPUT: # query: activity at 3 µM of entry CCN1CCN(Cc2c(O)ccc3c(=O)c(Oc4ccccc4C(C)C)c(C(F)(F)F)oc23)CC1
OUTPUT: 89.4

INPUT: # query: activity at 3 µM of entry COc1ccc(-n2nc(C)c([C@@H]3C=C[C@@H](NCc4cccc(Cl)c4)C3)c2C)cc1
OUTPUT: 13.5

INPUT: # query: activity at 3 µM of entry CCOC(=O)C1(Cc2ccccc2Cl)CCNCC1
OUTPUT: 106

INPUT: # query: activity at 3 µM of entry CCCN1C(CC(C)C)=N[S+](=O)([O-])c2cc(NC(=O)c3ccco3)ccc21
OUTPUT: 8.91

INPUT: # query: activity at 3 µM of entry Cn1nnnc1SCCCNCc1cccc(OCc2ccccc2)c1
OUTPUT: 94

INPUT: # query: activity at 3 µM of entry COc1ccccc1CN1COc2ccc3c(oc(=O)c4ccccc43)c2C1
OUTPUT: 86.8

INPUT: # query: activity at 3 µM of entry CC1=C(C(=O)Nc2ccc(C)cc2C)C(c2ccc([N+](=O)[O-])cc2)n2ncc(C(=O)Nc3ccc(F)cc3)c2N1 (centres unmarked)
OUTPUT: 94

INPUT: # query: activity at 3 µM of entry Oc1ccc(CN2CC(CNc3ccccc3)C3(C2)CN(c2ccccc2)C3)cc1 (centres unmarked)
OUTPUT: 6.04

INPUT: # query: activity at 3 µM of entry CC1=C(C(=O)Nc2ccc(C)cc2C)C(c2ccc(Br)cc2)n2ncc(C(=O)Nc3cccc(C)c3)c2N1 (centres unmarked)
OUTPUT: 87.7

INPUT: # query: activity at 3 µM of entry O=C(Nc1ccccc1)OC[C@H]1C[C@@H]2CCN1C[C@@H]2c1cc(C2CCCC2)nc(-c2ccncc2)n1
OUTPUT: 71.6

INPUT: # query: activity at 3 µM of entry O=C(Nc1ccc2c(N3CCCC3)ncnc2c1)c1cccc(F)c1
OUTPUT: 72.2

INPUT: # query: activity at 3 µM of entry Cc1cc(C)cc(C(=O)Nc2ccc3c(N4CCCC4)ncnc3c2)c1
OUTPUT: 34.2

INPUT: # query: activity at 3 µM of entry Fc1ccc(N2CCCN(C[C@H]3[C@@H]4CNC[C@@H]43)CC2)cc1
OUTPUT: 38.2

INPUT: # query: activity at 3 µM of entry CCOC(=O)C1(Cc2ccccc2C(F)(F)F)CCNCC1
OUTPUT: 96.6

INPUT: # query: activity at 3 µM of entry Cc1nn2c(c1-c1ccccc1-c1ccccc1)N(CCC(C)C)CCC2
OUTPUT: 7.19

INPUT: # query: activity at 3 µM of entry COc1ccc(-c2cc(=O)oc3c4c(ccc23)OCN(Cc2ccccc2)C4)cc1
OUTPUT: 101

INPUT: # query: activity at 3 µM of entry COc1ccc(N2CCN(c3cc(C4CC(N)C4)nc(N)n3)CC2(C)C)cc1 (centres unmarked)
OUTPUT: 88.5

INPUT: # query: activity at 3 µM of entry COc1ccccc1Nc1cnc2ccc(-c3ccc(OC)c(OC)c3)nn12
OUTPUT: 32.2

INPUT: # query: activity at 3 µM of entry COc1cc2c(cc1OCc1ccccc1)N(C(=O)c1cc3ccccc3[nH]1)CC21CCN(C)CC1
OUTPUT: 54.6

INPUT: # query: activity at 3 µM of entry Cc1ccc([S+](=O)([O-])N2CCC(OC3CCN(Cc4ccccc4)CC3)CC2)c(C)c1
OUTPUT: 61.2

INPUT: # query: activity at 3 µM of entry O=C(O)c1ccc(-c2nc3cnccc3[nH]2)cc1
OUTPUT: 93.1

INPUT: # query: activity at 3 µM of entry COc1ccc(CN2CCCn3nc(C)c(-c4ccccc4Oc4ccccc4)c32)cc1O
OUTPUT: 59.5

INPUT: # query: activity at 3 µM of entry CN(C)CCCNc1cc(N2CCN(C3CCCCC3)CC2)c2noc3c2c1C(=O)c1ccccc1-3
OUTPUT: 71.6
